Measured pKi, listed per entry for reference.
biological target: VIM-1 (Pseudomonas aeruginosa); experiment: In vitro enzyme inhibition assay, purified VIM-1 (imipenem hydrolysis, UV 299 nm); format: biochemical; conditions: mean Ki from multiple experiments; imipenem 300 μM; Cheng-Prusoff from IC50; read-out: Ki VIM-1
pKi: −log10 of the molar value.

Look over these answered cases.
- Compound: "O=C(CC1=NCCN1)Nc1ccc(S(=O)(=O)Nc2scnc2C(=O)O)cc1F [Example 21]"
  pKi: "6.30 to 6.70"
- Compound: "N=C1NCCN1CC(=O)Nc1ccc(S(=O)(=O)Nc2scnc2C(=O)O)cc1F [Example 38]"
  pKi: "6.30 to 6.70"
- Compound: "N=C(N)NCC(=O)Nc1cc(F)c(S(=O)(=O)Nc2scnc2C(=O)O)cc1F [Example 9]"
  pKi: "6.30 to 6.70"
- Compound: "C[C@@H](NC(=N)N)C(=O)Nc1ccc(S(=O)(=O)Nc2scnc2C(=O)O)cc1 [Example 11]"
  pKi: "6.30 to 6.70"
- Compound: "N=C(N)NCC(=O)NCc1ccc(S(=O)(=O)Nc2scnc2C(=O)O)cc1F [Example 45]"
  pKi: "6.00 to 6.30"
- Compound: "CC(C(=N)N)C(=O)Nc1ccc(S(=O)(=O)Nc2scnc2C(=O)O)cc1F (centres unmarked) [Example 37]"
  pKi: "> 6.70"
- Compound: "N=C(N)NCC(=O)Nc1ccc(S(=O)(=O)Nc2scnc2C(=O)O)cc1OC(F)(F)F [Example 18]"
  pKi: "> 6.70"
- Compound: "N=C(N)NNC(=O)Nc1ccc(S(=O)(=O)Nc2scnc2C(=O)O)cc1F [Example 29]"
  pKi: "6.30 to 6.70"

Incoming: Which measured pKi value corresponds to CNC(=N)CC(=O)Nc1ccc(S(=O)(=O)Nc2scnc2C(=O)O)cc1F [Example 22] ?
Outgoing: 6.30 to 6.70

Incoming: Which measured pKi value corresponds to N=C(N)CC(=O)Nc1c(F)cc(S(=O)(=O)Nc2scnc2C(=O)O)cc1F [Example 13] ?
Outgoing: > 6.70

Incoming: Which measured pKi value corresponds to N=C(N)NCC(=O)Nc1ccc(S(=O)(=O)Nc2scnc2C(=O)O)cc1C(N)=O [Example 6] ?
Outgoing: 6.30 to 6.70

###

target: IMP-1 (Serratia marcescens); assay: In vitro enzyme inhibition assay, purified IMP-1 (imipenem hydrolysis, UV 299 nm); type: biochemical; conditions: comparative study bands; read-out: Ki IMP-1 (comparative study)
Sequence (P52699 19-246, looked up, species assumed): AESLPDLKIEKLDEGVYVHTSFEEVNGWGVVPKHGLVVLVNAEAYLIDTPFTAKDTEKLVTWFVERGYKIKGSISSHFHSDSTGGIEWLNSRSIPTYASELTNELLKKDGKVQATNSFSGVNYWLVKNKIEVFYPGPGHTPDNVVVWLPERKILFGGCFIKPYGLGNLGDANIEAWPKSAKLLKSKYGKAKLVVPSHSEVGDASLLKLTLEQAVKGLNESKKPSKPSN
Recorded Metric: Ki

Look over these answered cases.
- Compound: "COc1cc(S(=O)(=O)Nc2scnc2C(=O)O)ccc1NC(=O)CNC(=N)N"
  Result: "150 to 600 nM"
- Compound: "NCC(=O)Nc1ccc(S(=O)(=O)Nc2scnc2C(=O)O)cc1OC(F)(F)F [Comp. G, reference compound]"
  Result: "150 to 600 nM"
- Compound: "NCC(=O)Nc1ncc(S(=O)(=O)Nc2scnc2C(=O)O)cc1F [Comp. C, reference compound]"
  Result: "600 to 5000 nM"
- Compound: "N#Cc1cc(S(=O)(=O)Nc2scnc2C(=O)O)ccc1NC(=O)CNC(=N)N"
  Result: "150 to 600 nM"

The record that follows has no Ki shown yet.
Incoming: Which measured Ki value corresponds to N#Cc1cc(S(=O)(=O)Nc2scnc2C(=O)O)ccc1NC(=O)CN [Comp. D, reference compound] ?
Outgoing: 150 to 600 nM

All figures here come from patent US11299467B2.
